Target or system human muscarinic M3 receptor (Homo sapiens): recorded muscarinic M3 receptor-positive allosteric modulator activity, 10 μM (-fold shift) listed per item.

| molecule | targetSystem | value |
| --- | --- | --- |
| C[C@@H]1CCCN1Cc1sc(NC(=O)c2cnc(N3CCN(CCC(=O)O)CC3)cn2)nc1-c1ccc(F)c(C(F)(F)F)c1 | human muscarinic M3 receptor (Homo sapiens) | 235 -fold shift |
| C[C@@H]1CCCN1Cc1sc(NC(=O)c2cnc(N3CCN(CCC(=O)O)C[C@@H]3C)cn2)nc1-c1cc(C(F)(F)F)cs1 | human muscarinic M3 receptor (Homo sapiens) | 229 -fold shift |
| COc1cc(-c2nc(NC(=O)c3cnc(N4CCN(CCC(=O)O)CC4)cn3)sc2CN2CCC[C@H]2C)cc(C(F)(F)F)c1 | human muscarinic M3 receptor (Homo sapiens) | 196 -fold shift |
| C[C@@H]1CCCN1Cc1sc(NC(=O)c2cnc(N3CCN(CCC(=O)O)[C@@H](C)C3)cn2)nc1-c1cc(C(F)(F)F)cs1 | human muscarinic M3 receptor (Homo sapiens) | 233 -fold shift |
| CC[C@@H]1CCCN1Cc1sc(NC(=O)c2cnc(N3CCN(CCC(=O)O)C[C@H]3C)cn2)nc1-c1ccc(OC(C)C)c(C(F)(F)F)c1 | human muscarinic M3 receptor (Homo sapiens) | 204 -fold shift |

Problem: Requested read-out muscarinic M3 receptor-positive allosteric modulator activity, 10 μM (-fold shift), target or system human muscarinic M3 receptor (Homo sapiens), entry COc1c(F)cc(-c2nc(NC(=O)c3cnc(N4CCN(CCC(=O)O)CC4)cn3)sc2CN2CCC[C@H]2C)cc1C(F)(F)F
Result: 152 -fold shift

Problem: Requested read-out muscarinic M3 receptor-positive allosteric modulator activity, 10 μM (-fold shift), target or system human muscarinic M3 receptor (Homo sapiens), entry C[C@@H]1CCCN1Cc1sc(NC(=O)c2cnc(N3CCN(CCC(=O)O)CC3)cn2)nc1-c1ccc(Cl)c(C(F)(F)F)c1
Result: 159 -fold shift

Problem: Requested read-out muscarinic M3 receptor-positive allosteric modulator activity, 10 μM (-fold shift), target or system human muscarinic M3 receptor (Homo sapiens), entry C[C@@H]1CCCN1Cc1sc(NC(=O)c2cnc(N3CCN(CCC(=O)O)CC3)cn2)nc1-c1cc(Cl)cs1 [Example 82]
Result: 43 -fold shift

Problem: Requested read-out muscarinic M3 receptor-positive allosteric modulator activity, 10 μM (-fold shift), target or system human muscarinic M3 receptor (Homo sapiens), entry C[C@@H]1CCCN1Cc1sc(NC(=O)c2cnc(N3CCN(CCC(=O)O)CC3)cn2)nc1-c1cc(Cl)cs1 [Example 50]
Result: 190 -fold shift

Problem: Requested read-out muscarinic M3 receptor-positive allosteric modulator activity, 10 μM (-fold shift), target or system human muscarinic M3 receptor (Homo sapiens), entry Cc1cc(OC(F)(F)F)cc(-c2nc(NC(=O)c3cnc(N4CCN(C(C)C(=O)O)CC4)cn3)sc2CN2CCC[C@H]2C)c1 (some centres unmarked)
Result: 113 -fold shift

----------
# targetSystem: human muscarinic M3 receptor (Homo sapiens)
Where a name gives a salt, the structure may show the parent alone.
measureName: muscarinic M3 receptor-positive allosteric modulator activity, 1 μM (-fold shift)

Check out these entries, answers already filled in.
| compound | value |
| --- | --- |
| CC(C(=O)O)N1CCN(c2cnc(C(=O)Nc3nc(-c4cc(F)cc(C(F)(F)F)c4)c(CN4CCC[C@H]4C)s3)cn2)CC1 (some centres unmarked) | 23 -fold shift |
| C[C@@H]1CCCN1Cc1sc(NC(=O)c2cnc(N3CCN(CCC(=O)O)C[C@H]3C)cn2)nc1-c1cc(C(F)(F)F)cs1 [Example 3, dihydrochloride] | 101 -fold shift |
| C[C@@H]1CN(c2cnc(C(=O)Nc3nc(-c4cc(Cl)cs4)c(CN(C)CC4CC4)s3)cn2)CCN1CCC(=O)O | 95 -fold shift |

Problem: I'd like to know its muscarinic M3 receptor-positive allosteric modulator activity, 1 μM (-fold shift). The compound in question is CCOc1ccc(-c2nc(NC(=O)c3cnc(N4CCN(CCC(=O)O)C[C@H]4C)cn3)sc2CN2CCC[C@H]2CC)cc1C(F)(F)F
Result: 30 -fold shift

Problem: I'd like to know its muscarinic M3 receptor-positive allosteric modulator activity, 1 μM (-fold shift). The compound in question is C[C@@H]1CCCN1Cc1sc(NC(=O)c2cnc(N3CCN(CCC(=O)O)C[C@@H]3C)cn2)nc1-c1cc(C(F)(F)F)cs1
Result: 82 -fold shift

----------
human c-Mpl-introduced Ba/F3 cell proliferative activity EC30 by entry:
# targetSystem: human c-Mpl-introduced Ba/F3 cell (Homo sapiens)
# Construct: expressed in transfected cells
# Sequence (P40238 26-635): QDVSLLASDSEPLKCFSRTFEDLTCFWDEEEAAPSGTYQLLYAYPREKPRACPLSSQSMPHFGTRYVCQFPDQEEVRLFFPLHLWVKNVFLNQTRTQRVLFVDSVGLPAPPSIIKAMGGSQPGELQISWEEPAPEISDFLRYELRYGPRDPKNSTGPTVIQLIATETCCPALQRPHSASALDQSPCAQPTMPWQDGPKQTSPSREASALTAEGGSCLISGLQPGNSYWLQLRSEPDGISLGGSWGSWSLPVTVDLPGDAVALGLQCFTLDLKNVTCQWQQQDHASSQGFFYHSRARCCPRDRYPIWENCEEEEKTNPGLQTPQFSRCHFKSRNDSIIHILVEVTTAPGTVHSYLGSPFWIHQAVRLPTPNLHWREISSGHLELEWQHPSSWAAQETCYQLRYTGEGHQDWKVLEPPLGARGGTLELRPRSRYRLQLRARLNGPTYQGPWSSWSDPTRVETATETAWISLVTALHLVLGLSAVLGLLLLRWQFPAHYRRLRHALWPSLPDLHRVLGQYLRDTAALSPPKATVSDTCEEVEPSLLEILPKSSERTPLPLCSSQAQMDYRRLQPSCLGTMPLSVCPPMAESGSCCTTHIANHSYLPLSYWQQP
# methodDescription: Test Example 2: human c-Mpl-introduced Ba/F3 cell proliferative activity
# Assay type: cell-based
# conditionInfo: concentration exhibiting 30% proliferation; 100% = positive control (Example 315 of Patent Document 1) at 1 μM

Check out these entries, answers already filled in.
| cpdSmiles | value |
| --- | --- |
| C[C@@H]1CCCN1Cc1sc(NC(=O)c2cnc(N3CCN(CCCC(=O)O)CC3)cn2)nc1-c1cc(F)cc(C(F)(F)F)c1 | >10 µM |
| C[C@@H]1CCCN1Cc1sc(NC(=O)c2cnc(N3CCN(CC(=O)O)CC3)cn2)nc1-c1cc(Cl)cs1 | 2.6 µM |
| C[C@@H]1CCCN1Cc1sc(NC(=O)c2cnc(N3CCN(CC(=O)O)CC3)cn2)nc1-c1cc(Cl)cc(C(F)(F)F)c1 | >10 µM |

Problem: I'd like to know its human c-Mpl-introduced Ba/F3 cell proliferative activity EC30. The compound in question is Cc1cc(-c2nc(NC(=O)c3cnc(N4CCN(CCC(=O)[O-])CC4)cn3)sc2CN2CCCC[C@H]2C)cc(C(F)(F)F)c1.[Na+]
Result: >3 µM

Problem: I'd like to know its human c-Mpl-introduced Ba/F3 cell proliferative activity EC30. The compound in question is CC[C@@H]1CCCN1Cc1sc(NC(=O)c2cnc(N3CCN(CCC(=O)O)C[C@@H]3C)cn2)nc1-c1cc(Cl)cs1
Result: 5.3 µM

Problem: I'd like to know its human c-Mpl-introduced Ba/F3 cell proliferative activity EC30. The compound in question is CC[C@@H]1CCCN1Cc1sc(NC(=O)c2cnc(N3CCN(CC(=O)O)CC3)cn2)nc1-c1ccc(OC)c(C(F)(F)F)c1
Result: >10 µM

Problem: I'd like to know its human c-Mpl-introduced Ba/F3 cell proliferative activity EC30. The compound in question is C[C@@H]1CCCN1Cc1sc(NC(=O)c2cnc(N3CCN(CCC(=O)[O-])CC3)cn2)nc1-c1cc(C#N)cc(C(F)(F)F)c1.[Na+]
Result: >10 µM

----------
# targetSystem: human muscarinic M3 receptor (Homo sapiens, UniProt P20309)
# Sequence (P20309 whole entry): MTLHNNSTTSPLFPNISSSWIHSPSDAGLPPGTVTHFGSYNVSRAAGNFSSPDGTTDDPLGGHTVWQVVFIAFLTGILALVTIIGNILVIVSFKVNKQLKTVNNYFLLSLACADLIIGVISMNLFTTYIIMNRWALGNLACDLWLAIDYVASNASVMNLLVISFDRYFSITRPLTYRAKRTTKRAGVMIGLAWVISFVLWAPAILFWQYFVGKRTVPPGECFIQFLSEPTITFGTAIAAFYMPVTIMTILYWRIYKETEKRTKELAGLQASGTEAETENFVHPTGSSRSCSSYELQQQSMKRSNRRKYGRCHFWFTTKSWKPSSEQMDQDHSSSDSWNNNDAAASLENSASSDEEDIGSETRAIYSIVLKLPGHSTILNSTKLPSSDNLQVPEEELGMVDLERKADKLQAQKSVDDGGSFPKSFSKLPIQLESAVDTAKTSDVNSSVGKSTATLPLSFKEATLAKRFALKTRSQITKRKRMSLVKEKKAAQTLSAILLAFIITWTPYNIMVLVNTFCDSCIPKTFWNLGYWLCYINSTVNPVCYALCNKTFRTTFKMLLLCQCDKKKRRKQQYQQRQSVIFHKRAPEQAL
measureName: muscarinic M3 receptor-positive allosteric modulator activity, 1 μM (-fold shift)

Check out these entries, answers already filled in.
| cpdSmiles | value |
| --- | --- |
| CN(Cc1sc(NC(=O)c2cnc(N3CCN(CCC(=O)O)CC3)cn2)nc1-c1cc(F)cc(C(F)(F)F)c1)CC1CC1 | 56 -fold shift |
| C[C@@H]1CC[C@@H](C)N1Cc1sc(NC(=O)c2cnc(N3CCN(CCC(=O)O)[C@@H](C)C3)cn2)nc1-c1cc(Cl)cs1 | 79 -fold shift |
| COc1c(F)cc(-c2nc(NC(=O)c3cnc(N4CCN(CCC(=O)O)C[C@H]4C)cn3)sc2CN2CCC[C@H]2C)cc1C(F)(F)F | 30 -fold shift |
| C[C@@H]1CCCN1Cc1sc(NC(=O)c2cnc(N3CCN(CCC(=O)O)CC3)cn2)nc1-c1cc(Br)cc(C(F)(F)F)c1 | 31 -fold shift |
| C[C@@H]1CCCN1Cc1sc(NC(=O)c2cnc(N3CCN(CCC(=O)O)CC3)cn2)nc1-c1ccc(C2CC2)c(C(F)(F)F)c1 | 39 -fold shift |

Problem: Requested read-out muscarinic M3 receptor-positive allosteric modulator activity, 1 μM (-fold shift), target or system human muscarinic M3 receptor (Homo sapiens, UniProt P20309), entry C[C@@H]1CCCN1Cc1sc(NC(=O)c2cnc(N3CCN(CC(=O)O)CC3)cn2)nc1-c1cc(Cl)cc(C(F)(F)F)c1
Result: 43 -fold shift

Problem: Requested read-out muscarinic M3 receptor-positive allosteric modulator activity, 1 μM (-fold shift), target or system human muscarinic M3 receptor (Homo sapiens, UniProt P20309), entry C[C@@H]1CN(c2cnc(C(=O)Nc3nc(-c4cc(Cl)cs4)c(CN4CCC[C@H]4C)s3)cn2)CCN1CCC(=O)O
Result: 60 -fold shift

----------
muscarinic M3 receptor-positive allosteric modulator activity, 10 μM (-fold shift) by entry:
# targetSystem: human muscarinic M3 receptor (Homo sapiens)

Problem: Requested read-out muscarinic M3 receptor-positive allosteric modulator activity, 10 μM (-fold shift), target or system human muscarinic M3 receptor (Homo sapiens), entry CC[C@@H]1CCCN1Cc1sc(NC(=O)c2cnc(N3CCN(CCC(=O)O)[C@@H](C)C3)cn2)nc1-c1cc(Cl)cs1 [Example 81]
Result: 94 -fold shift

Problem: Requested read-out muscarinic M3 receptor-positive allosteric modulator activity, 10 μM (-fold shift), target or system human muscarinic M3 receptor (Homo sapiens), entry CCOc1ccc(-c2nc(NC(=O)c3cnc(N4CCN(CCC(=O)O)C[C@H]4C)cn3)sc2CN2CCC[C@H]2CC)cc1C(F)(F)F [Example 133]
Result: 164 -fold shift

Problem: Requested read-out muscarinic M3 receptor-positive allosteric modulator activity, 10 μM (-fold shift), target or system human muscarinic M3 receptor (Homo sapiens), entry CC[C@@H]1CCCN1Cc1sc(NC(=O)c2cnc(N3CCN(CCC(=O)O)C[C@@H]3C)cn2)nc1-c1cc(Cl)cs1 [Example 28]
Result: 108 -fold shift

Problem: Requested read-out muscarinic M3 receptor-positive allosteric modulator activity, 10 μM (-fold shift), target or system human muscarinic M3 receptor (Homo sapiens), entry COc1c(F)cc(-c2nc(NC(=O)c3cnc(N4CCN(CCC(=O)O)C[C@H]4C)cn3)sc2CN2CCC[C@H]2C)cc1C(F)(F)F [Example 92]
Result: 203 -fold shift

Problem: Requested read-out muscarinic M3 receptor-positive allosteric modulator activity, 10 μM (-fold shift), target or system human muscarinic M3 receptor (Homo sapiens), entry C[C@@H]1CC[C@@H](C)N1Cc1sc(NC(=O)c2cnc(N3CCN(CCC(=O)O)[C@@H](C)C3)cn2)nc1-c1cc(Cl)cs1 [Example 126]
Result: 318 -fold shift

Problem: Requested read-out muscarinic M3 receptor-positive allosteric modulator activity, 10 μM (-fold shift), target or system human muscarinic M3 receptor (Homo sapiens), entry CC[C@@H]1CCCN1Cc1sc(NC(=O)c2cnc(N3CCN(CCC(=O)O)CC3)cn2)nc1-c1cccc(C(F)(F)F)c1 [Example 65]
Result: 90 -fold shift

Problem: Requested read-out muscarinic M3 receptor-positive allosteric modulator activity, 10 μM (-fold shift), target or system human muscarinic M3 receptor (Homo sapiens), entry CCN(CC)Cc1sc(NC(=O)c2cnc(N3CCN(CC(=O)O)C[C@H]3C)cn2)nc1-c1cc(F)cc(C(F)(F)F)c1 [Example 118]
Result: 167 -fold shift
